Test system: L1210
Experiment: Compound was tested for antitumor activity against L1210 cells
Format: functional
Settings: Mus musculus
Test Readout: MIC50 (µg/mL)
Give your result in µg/mL as a bare value.

>>> recorded_measurement("O=c1[nH]c(=O)n([C@H]2C[C@H](O)[C@@H](CO)O2)cc1/C=C/Br [BRIVUDINE]")
31

Q: I have this compound here, `O=c1[nH]c(=O)n([C@H]2C[C@H](O)[C@@H](CO)O2)cc1C=C(F)F` , and I need its recorded MIC50.
Result: 30

====

Assay: Compound was tested for antiviral activity against herpes simplex virus( HSV-1-McIntyre) strain in primary rabbit kidney cells
Assay type: functional
Conditions: Oryctolagus cuniculus
Collected MIC50 values appear next to each entry.
Give your result in µg/mL as a bare value.

Please review the following examples before continuing.
>>> recorded_measurement("O=c1[nH]c(=O)n([C@H]2C[C@H](O)[C@@H](CO)O2)cc1I")
0.3
>>> recorded_measurement("O=c1[nH]c(=O)n([C@H]2C[C@H](O)[C@@H](CO)O2)cc1/C=C/Br")
0.02
>>> recorded_measurement("O=c1[nH]c(=O)n([C@H]2C[C@H](O)[C@@H](CO)O2)cc1C=C(Br)Br")
20
>>> recorded_measurement("O=c1[nH]c(=O)n([C@@H]2C[C@H](O)[C@@H](CO)O2)cc1C=C(F)F")
20

Q: I have this molecule here, `O=c1[nH]c(=O)n([C@H]2C[C@H](O)[C@@H](CO)O2)cc1C=C(F)F` , and I need its recorded MIC50.
Result: 0.3

====

Collected MIC50 values appear next to each entry.
Experiment: Compound was tested for antiviral activity against herpes simplex virus( HSV-2-196 strain in primary rabbit kidney cells
Assay type: functional
Settings: Oryctolagus cuniculus
Give your result in µg/mL as a bare value.

>>> recorded_measurement("O=c1[nH]c(=O)n([C@@H]2C[C@H](O)[C@@H](CO)O2)cc1C=C(F)F")
100
>>> recorded_measurement("O=c1[nH]c(=O)n([C@H]2C[C@H](O)[C@@H](CO)O2)cc1C=C(F)F")
10
>>> recorded_measurement("O=c1[nH]c(=O)n([C@H]2C[C@H](O)[C@@H](CO)O2)cc1/C=C/Br")
7
>>> recorded_measurement("O=c1[nH]c(=O)n([C@H]2C[C@H](O)[C@@H](CO)O2)cc1C=C(Br)Br")
150

The record that follows has no MIC50 shown yet.
Q: I have this compound here, `O=c1[nH]c(=O)n([C@H]2C[C@H](O)[C@@H](CO)O2)cc1I` , and I need its recorded MIC50.
Result: 3

====

Assay: Compound was tested for antiviral activity against herpes simplex virus( HSV-1-F) strain in primary rabbit kidney cells
Assay type: functional
Conditions: Oryctolagus cuniculus
Rule: measured MIC50 below 0.3 µg/mL gets MET; anything equal to or greater than 0.3 µg/mL gets NOT MET.

Q: Is the reported MIC50 for `Oc1ncc(C=C(F)F)c(O)n1` strictly below 0.3 µg/mL?
Result: NOT MET

Q: Cool, now `O=c1[nH]c(=O)n([C@H]2C[C@H](O)[C@@H](CO)O2)cc1C=C(Br)Br`
Result: NOT MET

Q: Cool, now `O=c1[nH]c(=O)n([C@@H]2C[C@H](O)[C@@H](CO)O2)cc1C=C(F)F`
Result: NOT MET

Q: Cool, now O=c1[nH]c(=O)n([C@H]2C[C@H](O)[C@@H](CO)O2)cc1I [IDOXURIDINE]
Result: MET

Q: Cool, now O=c1[nH]c(=O)n([C@H]2C[C@H](O)[C@@H](CO)O2)cc1/C=C/Br [BRIVUDINE]
Result: MET

====

System: L1210
Test: Compound was tested for antitumor activity against L1210 cells
Type: functional
Conditions: Mus musculus
Test Readout: MIC50

Please review the following examples before continuing.
>>> recorded_measurement("O=c1[nH]c(=O)n([C@H]2C[C@H](O)[C@@H](CO)O2)cc1C=C(Br)Br")
"> 100 µg/mL"
>>> recorded_measurement("Oc1ncc(C=C(F)F)c(O)n1")
"> 100 µg/mL"

Q: What value of MIC50 on L1210 does `O=c1[nH]c(=O)n([C@@H]2C[C@H](O)[C@@H](CO)O2)cc1C=C(F)F` have?
Result: > 100 µg/mL
